These entries and their values trace back to the OPERA property sets (Mansouri et al. 2018).

conditions: fish
log10 biotransformation half-life (days) values, listed per item
The answer should be a number; do not append a unit.

• CCOC(=O)C(O)(c1ccc(Cl)cc1)c1ccc(Cl)cc1 = -0.08

Looking up c1ccsc1 , I found its log10 biotransformation half-life (days) recorded as -0.82

CC(C)Oc1cccc(NC(=O)c2ccccc2C(F)(F)F)c1 yielded log10 biotransformation half-life (days) of -0.61

Entry COc1ccccc1[N+](=O)[O-] ; log10 biotransformation half-life (days) = -1.04

Entry c1ccc2c(c1)ccc1c3ccccc3ccc21 — recorded log10 biotransformation half-life (days) = 0.59

Form: compound = Cc1ccc(C(C)(C)C)cc1 ; log10 biotransformation half-life (days) = 0.31

----------
quantity_kind: boiling point (°C)
Numeric answer only, unit °C assumed.

Example compounds with recorded boiling point:
* FC1(F)C(Cl)=C(Cl)C(F)(F)C(F)(F)C1(F)F | 113
* CCC(C)CS (configuration not stated) | 116
* CC(Br)C(=O)c1ccccc1 (configuration not stated) | 248

Noted for CCOC(=O)[C@@H](C)Br : its boiling point reads 160

Value of measured boiling point for the entry CCCCCCCCCCCCCCCCC#N : 349

Memo: CCCC(CC)CCC , reported boiling point: 141

Entry NCc1ccccc1 ; boiling point = 185

// recorded boiling point for S=C=Nc1cccc(Br)c1 : 256

Record CC(C)COCC(C)C . Reported boiling point: 123

Record summary for CCC(Cl)(Cl)[N+](=O)[O-] : reported boiling point = 145

compound CCCC(C)(O)CC(C)C (configuration not stated) , boiling point observed: 171

----------
quantity_kind: ready biodegradability

These recorded examples may help you get a feel for the data.
* CCCCCCCC/C=C\CCCCCCCC(=O)OCC(O)CO (configuration not stated) | readily biodegradable
* O=C(Oc1cccc(O)c1)c1ccccc1 | readily biodegradable
* Oc1cccc(O)c1 | readily biodegradable
* CNCCCN | readily biodegradable
* O=C1OCc2ccccc21 | readily biodegradable

ready biodegradability measured on CC(=O)CC(C)(C)O = readily biodegradable

----------
Listed here are compounds together with their documented boiling point.

Record summary for COC(=O)C(F)(F)C(F)(F)F : reported boiling point = 59.5 °C

Given item C1CCC(CCCC2CCCCC2)CC1 , the value recorded as its boiling point is 292 °C

Please fill in: boiling point reported for Cc1cccc(N)c1 = 203 °C

Recorded boiling point (compound Cc1ccc(N(CCO)CCO)cc1 ): 339 °C

boiling point measured on Brc1ccccc1 = 156 °C

get_value(item= CCCC(C)CCN (configuration not stated) , readout=boiling point) returns 149 °C

Lab note: measured boiling point of FC(F)CC(F)(F)F was 40 °C

Memo: C[C@H](N[C@@H](C)c1ccccc1)c1ccccc1 , reported boiling point: 296 °C

Sure, the documented boiling point for Cc1csc(C)c1C is 162 °C

The value of boiling point measured for the compound ClC1=C(Cl)[C@]2(Cl)[C@@H]3[C@@H]4C[C@@H]([C@H]5O[C@@H]45)[C@@H]3[C@@]1(Cl)C2(Cl)Cl (single isomer, unassigned) turned out to be 330 °C

----------
quantity_kind: log10 vapour pressure (mmHg)
Lab note: record just the number, no unit beside it.

- O=[N+]([O-])c1c(Cl)c(Cl)c(Cl)c(Cl)c1Cl: -4.3
- N#Cc1c(Cl)c(Cl)c(Cl)c(C#N)c1Cl: -6.24
- CC(C1CC1)C(O)(Cn1cncn1)c1ccc(Cl)cc1 (configuration not stated): -6.59
- FC(F)OC(F)C(F)(F)F (configuration not stated): 2.82

For this compound ( C=C=C ), measured log10 vapour pressure (mmHg) is 3.73

The recorded log10 vapour pressure (mmHg) for CN(C)S(=O)(=O)N(SC(F)(Cl)Cl)c1ccccc1 is -6.95

Item: C[Si](C)(C)O[Si](C)(C)O[Si](C)(C)O[Si](C)(C)O[Si](C)(C)O[Si](C)(C)O[Si](C)(C)O[Si](C)(C)C | log10 vapour pressure (mmHg): -2.5

Form: compound = CCCCCCCCCCBr ; log10 vapour pressure (mmHg) = -1.4

The compound listed as C=CC(=O)OCCOC(=O)C=C has a reported log10 vapour pressure (mmHg) of -1.18

Briefly, log10 vapour pressure (mmHg) measured for Clc1cc2oc3c(Cl)cc(Cl)c(Cl)c3c2cc1Cl : -8.82

----------
Returns the class for an entry based on its melting point. Class ranges: L: < 60 °C; M: ≥ 60 °C and < 100 °C; H: ≥ 100 °C

A selection of reference data follows.
* O=C(O)COc1ccc(F)cc1 | H
* c1ccc(-c2ccccn2)nc1 | M

Exam item: assign Cc1ccc(C)c(O)c1 to the correct category. M

# bin label for CC1(C)[C@@H]2CC(=O)[C@@](C)(O)[C@H]1C2 L

Band of CCn1cc(C(=O)O)c(=O)c2cnc(N3CCCC3)nc21 ? H

Lab note: which band did Brc1ccc2oc3ccccc3c2c1 land in? H

# bin lookup: classify c1ccc(-c2c3ccccc3nc3ccccc23)cc1 by its melting point H

Determine which band this compound sits in: Nc1ccc([N+](=O)[O-])cn1 H

// return the class label for O=[N+]([O-])c1ccc(Cl)c(Cl)c1Cl L

Using the reported melting point, which band applies to CCCCCCCCCCCCCCCCCCOO ? L

Quick check: band for O=C(c1ccccc1)C(F)(F)F L

Determine which band this compound sits in: COC(=O)c1ccc(O)cc1 H

Category of O=[N+]([O-])c1ccccc1CO : M

Class for CCCCNC(=O)NS(=O)(=O)c1ccccc1 ? H

----------
Reported boiling point values for the following compounds.
Numbers only; they are read as °C.

- CCCCCCCCCCCCCC(C)=O: 294
- CCP(CC)CC: 129
- C=CCCCCCCCCC(=O)OC: 248
- OCc1ccccc1Cl: 230
- O=C(O)[C@H]1CC=CCC1: 234

The measured boiling point associated with C=C[Si](C)(C)C reads 55

The reported value for O=C(CCl)C(Cl)(Cl)Cl in terms of boiling point is 183

Reported boiling point of CCC(O)(CC)CC : 142

Sample FCCCBr ; boiling point observed: 101

Please fill in: boiling point reported for ClCCCOc1ccccc1 = 250

Query O=C(Cc1ccccc1)c1ccccc1 yields boiling point of 320

----------
quantity_kind: melting point (°C)
Provide the reading as a plain figure in °C.

Recorded results for 5 compounds are shown here.
• CC(C)=CC=C(C)C = 14
• CCNS(=O)(=O)C(F)(F)C(F)(F)C(F)(F)C(F)(F)C(F)(F)C(F)(F)C(F)(F)C(F)(F)F = 96
• CCCCC(=O)OCCC = -70.7
• Oc1c(O)c(Br)c(Br)c(Br)c1Br = 191
• O=C1CCCCO1 = -12.5

CCOC(=O)CCCOc1ccc(Cl)cc1C yielded melting point of -1

melting point for C[C@@H]1C[C@H]2[C@@H]3C[C@H](F)C4=CC(=O)C=C[C@]4(C)[C@@]3(F)[C@@H](O)C[C@]2(C)[C@H]1C(=O)CO is 242

Entry O=C(OOC(=O)c1ccccc1)c1ccccc1 — recorded melting point = 105

ClC(Cl)C(Cl)Cl yielded melting point of -43.8

----------
conditions: fish
quantity_kind: log10 BCF

The examples below pair each entry with its known result.
• CCNc1nc(Cl)nc(NCC)n1 = 0.56
• Cc1cc(C)c(O)c(C)c1 = 0.93
• ClCC(Br)CBr (stereo not drawn) = 1.06
• Brc1ccc(Br)c(Br)c1 = 3.63
• ClC1=C(Cl)[C@]2(Cl)[C@@H]3[C@@H]4C[C@@H]([C@H]5O[C@@H]45)[C@@H]3[C@@]1(Cl)C2(Cl)Cl (single isomer, unassigned) = 3.91

The measured log10 BCF associated with Clc1cccc(Cl)c1 reads 2.33

Entry Nc1cc(Cl)ccc1Cl — recorded log10 BCF = 1.18

// log10 BCF value for Brc1cc(Br)c(-c2c(Br)cc(Br)cc2Br)c(Br)c1 : 4.66

----------
Would you mind labelling by boiling point? At or over 100 °C is Condition met, under is Condition not met.

* CCCC(C)CBr (stereo not drawn) | Condition met
* FC(Br)C(F)(F)Br (stereo not drawn) | Condition not met
* C=CCl | Condition not met
* CC=Cc1ccccc1O | Condition met
* Cc1ccccc1CO[C@H]1C[C@]2(C(C)C)CC[C@@]1(C)O2 (single isomer, unassigned) | Condition met
* Cc1ccc2c(c1)CC=C2 | Condition met

Say whether CC1=CCCCC1 shows boiling point of 100 °C or more. Condition met

Is the recorded value of boiling point equal to or greater than 100 °C for this compound? CC(C)(C)Cl Condition not met

----------
Recorded melting point values for a group of molecules are listed next.
Hi! Could you send only the number? It should be in °C, unit omitted.

The examples below pair each entry with its known result.
- COS(=O)(=O)[O-].C[n+]1c2ccccc2nc2ccccc21: 157
- CCCCCCCCOC(=O)CCCCC(=O)OCCCCCCCC: -70
- CNC(=O)O/N=C1\[C@@H](Cl)[C@@H]2C[C@H](C#N)[C@H]1C2: 144
- Cc1c(C)n(C)c2ccccc12: 18

Recorded result, Nc1cccc(Cl)c1 , melting point: -10.4

Form: molecule = CC(C)c1cccc(O)c1 ; melting point = 26

Consider CC[N+](=O)[O-] . Its measured melting point is -89.5

// melting point lookup, molecule = CC(=O)Oc1ccc(OC(C)=O)c(-c2ccccc2)c1 , result: 68

The molecule listed as CCOc1ccc(N)cc1 shows melting point equal to 2.4

The measured melting point associated with COC(=O)CCC(=O)O reads 58

The reported melting point of the molecule O=C1OC(=O)c2c(I)c(I)c(I)c(I)c21 was 328

Reported melting point ( CCCCCCC(=O)CCCC ) = 2

Value of melting point reported for the molecule O=C(O)c1cc(F)cc(F)c1 is 122

get_value(item= C1=CC2C3C=CC(C3)C2C1 (stereo not given) , readout=melting point) returns 15.5

Entry Cc1c(Cc2cc(C(C)(C)C)c(O)c(C(C)(C)C)c2)c(C)c(Cc2cc(C(C)(C)C)c(O)c(C(C)(C)C)c2)c(C)c1Cc1cc(C(C)(C)C)c(O)c(C(C)(C)C)c1 , melting point reported as 244

Measured melting point of CCCCCCCCCCCC(=O)CC : 34
